Each entry below carries its recorded PQ.
Tested on: rats
procedure-summary: Heart rate and ECG intervals in rats
Format: in vivo, male Wistar rats
condition-context: 10 mg/kg i.p., time 45 min
Just the number please, in ms, no unit attached.

Known PQ results, listed for orientation:
c1ccc(-c2ccc(OCCCN3CCN(c4ccncc4)CC3)cc2)cc1    53.3
CCC(=O)c1ccc(OCCCCCCCCN2CCN(c3ccncc3)CC2)cc1    57.5
CC(=O)c1ccc(OCCCCCCCCN2CCN(c3ccncc3)CC2)cc1    52.5

Now turn to the next compound.
Please report the recorded PQ for O=C(c1ccccc1)c1ccc(OCCCN2CCN(c3ccncc3)CC2)cc1 .
55.0

----------
Examples of compounds with documented PQ follow.
Tested on: rats
procedure-summary: Heart rate and ECG intervals in rats
Format: in vivo, male Wistar rats
condition-context: 10 mg/kg i.p., time 60 min
Lab book: enter the figure in ms, no units written.

Recorded PQ, per entry:
CC(=O)c1ccc(OCCCCCCCCN2CCN(c3ccncc3)CC2)cc1 [KSK-73]    53.8
O=C(c1ccccc1)c1ccc(OCCCN2CCN(c3ccncc3)CC2)cc1 [KSK-63]    62.5
c1ccc(-c2ccc(OCCCN3CCN(c4ccncc4)CC3)cc2)cc1 [KSK-61]    53

// query PQ value for entry CCC(=O)c1ccc(OCCCCCCCCN2CCN(c3ccncc3)CC2)cc1 [KSK-74]
55.0

----------
Tested on: rats
procedure-summary: Heart rate and ECG intervals in rats
Type: in vivo, male Wistar rats
condition-context: 10 mg/kg i.p., time 30 min
Each entry below carries its recorded QT.
All answers are understood in ms, so give the number only.

Worked examples, 3 molecules total:
CC(=O)c1ccc(OCCCCCCCCN2CCN(c3ccncc3)CC2)cc1 [KSK-73]    60.0
c1ccc(-c2ccc(OCCCN3CCN(c4ccncc4)CC3)cc2)cc1 [KSK-61]    58.8
CCC(=O)c1ccc(OCCCCCCCCN2CCN(c3ccncc3)CC2)cc1 [KSK-74]    61.3

Proceed to the following item.
Quick check: QT on rats, item O=C(c1ccccc1)c1ccc(OCCCN2CCN(c3ccncc3)CC2)cc1 [KSK-63] ?
65.3

----------
System: rats
procedure-summary: Heart rate and ECG intervals in rats
Type: in vivo, male Wistar rats
condition-context: 10 mg/kg i.p., time 45 min
measured-quantity: Heart rate
Output should be the measured figure followed by the unit it is expressed in.

Illustrative cases are given below, each with its answer.
O=C(c1ccccc1)c1ccc(OCCCN2CCN(c3ccncc3)CC2)cc1    344.3 ± 30.8 beats/min
CCC(=O)c1ccc(OCCCCCCCCN2CCN(c3ccncc3)CC2)cc1    364.6 ± 18.1 beats/min
c1ccc(-c2ccc(OCCCN3CCN(c4ccncc4)CC3)cc2)cc1    349.5 ± 21.3 beats/min

For the next question, use this compound.
Using the record for CC(=O)c1ccc(OCCCCCCCCN2CCN(c3ccncc3)CC2)cc1 , report its Heart rate.
395.8 ± 33.3 beats/min

----------
Each entry below lists one item and its recorded % of Mice Impaired value.
System: mice
procedure-summary: Motor coordination in the chimney test
Format: in vivo, male Albino Swiss (CD-1) mice
condition-context: chimney test, 20 mg/kg i.p., 30 min after injection, n = 8
Report the value in % with no unit label.

Consider the reported % of Mice Impaired for these compounds:
O=C(c1ccccc1)c1ccc(OCCCN2CCN(c3ccncc3)CC2)cc1    0
CC(=O)c1ccc(OCCCCCCCCN2CCN(c3ccncc3)CC2)cc1    0
c1ccc(-c2ccc(OCCCN3CCN(c4ccncc4)CC3)cc2)cc1    12.5

Then this compound:
Any idea what % of Mice Impaired was measured for CCC(=O)c1ccc(OCCCCCCCCN2CCN(c3ccncc3)CC2)cc1 ?
12.5
